molecular target: 5-hydroxytryptamine receptor 1B (Homo sapiens); test: Adenyl cyclase activity was expressed as percent forskolin response against 5-hydroxytryptamine 1B receptor at concentration 10 uM; format: functional
Sequence (P28222 whole entry): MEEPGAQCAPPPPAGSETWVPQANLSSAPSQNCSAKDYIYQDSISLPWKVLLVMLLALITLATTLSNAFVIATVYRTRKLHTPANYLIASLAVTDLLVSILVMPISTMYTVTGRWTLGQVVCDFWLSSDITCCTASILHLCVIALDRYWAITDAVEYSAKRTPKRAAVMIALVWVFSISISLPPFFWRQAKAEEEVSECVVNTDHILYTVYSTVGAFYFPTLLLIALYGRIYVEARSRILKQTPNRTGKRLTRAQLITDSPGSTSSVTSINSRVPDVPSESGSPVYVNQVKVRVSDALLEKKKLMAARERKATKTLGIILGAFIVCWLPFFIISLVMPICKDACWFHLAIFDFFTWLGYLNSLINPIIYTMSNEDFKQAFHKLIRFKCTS
Entries and their Response values follow.
EXPERIMENTAL_ENDPOINT: Response (%)

• CC(C)(C)c1ccc(CC2=NCCN2)cc1 = 86
• Cc1cc(C(C)(C)C)c(O)c(C)c1CC1=NCCN1 = 40
• Cc1cc(C(C)C)cc(C)c1CC1=NCCN1 = 56
• Cc1cc(C(C)(C)C)cc(C)c1CC1=NCCN1 = 64
• Cc1cc(C(C)(C)C)ccc1CC1=NCCN1 = 58
• Cc1cc(C)c(CC2=NCCN2)c(C)c1 = 52

###

molecular target: Adrenergic receptor alpha; experiment: Binding affinity towards Alpha-1 adrenergic receptor; assay type: protein assay, Canis lupus familiaris
EXPERIMENTAL_ENDPOINT: Ki (nM)

• Cc1cc(C(C)C)cc(C)c1CC1=NCCN1 = 65
• Cc1cc(C(C)(C)C)cc(C)c1CC1=NCCN1 = 91
• CC(C)(C)c1ccc(CC2=NCCN2)cc1 = 2625
• Cc1cc(C(C)(C)C)ccc1CC1=NCCN1 = 154

###

The following molecules are shown together with reported Ki values.
Molecular target: Adrenergic receptor alpha-2 (Homo sapiens, UniProt P08913+P18825+P18089)
Sequence (P08913 whole entry): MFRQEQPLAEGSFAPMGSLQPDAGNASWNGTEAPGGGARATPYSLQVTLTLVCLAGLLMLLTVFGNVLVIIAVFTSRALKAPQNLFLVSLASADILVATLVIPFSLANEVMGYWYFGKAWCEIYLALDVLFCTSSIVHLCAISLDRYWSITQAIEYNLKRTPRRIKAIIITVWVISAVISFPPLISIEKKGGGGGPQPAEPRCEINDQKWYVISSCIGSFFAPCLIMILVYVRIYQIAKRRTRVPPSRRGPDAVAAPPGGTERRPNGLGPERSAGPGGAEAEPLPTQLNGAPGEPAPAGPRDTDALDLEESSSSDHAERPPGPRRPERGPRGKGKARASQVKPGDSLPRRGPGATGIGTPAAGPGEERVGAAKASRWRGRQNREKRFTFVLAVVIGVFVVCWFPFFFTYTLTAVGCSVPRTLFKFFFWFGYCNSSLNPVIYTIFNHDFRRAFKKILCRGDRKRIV
Sequence (P18825 whole entry): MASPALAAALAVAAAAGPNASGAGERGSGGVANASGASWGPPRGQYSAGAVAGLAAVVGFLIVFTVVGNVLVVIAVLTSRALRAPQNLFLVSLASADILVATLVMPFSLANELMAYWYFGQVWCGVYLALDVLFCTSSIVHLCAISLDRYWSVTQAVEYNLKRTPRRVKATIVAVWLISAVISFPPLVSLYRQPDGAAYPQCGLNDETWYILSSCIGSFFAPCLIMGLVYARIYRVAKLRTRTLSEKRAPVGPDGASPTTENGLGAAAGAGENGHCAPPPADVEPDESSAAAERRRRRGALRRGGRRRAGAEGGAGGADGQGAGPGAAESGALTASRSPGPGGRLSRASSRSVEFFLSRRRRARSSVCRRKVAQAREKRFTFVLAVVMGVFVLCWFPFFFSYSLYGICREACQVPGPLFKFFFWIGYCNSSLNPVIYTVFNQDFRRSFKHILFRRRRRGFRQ
Sequence (P18089 whole entry): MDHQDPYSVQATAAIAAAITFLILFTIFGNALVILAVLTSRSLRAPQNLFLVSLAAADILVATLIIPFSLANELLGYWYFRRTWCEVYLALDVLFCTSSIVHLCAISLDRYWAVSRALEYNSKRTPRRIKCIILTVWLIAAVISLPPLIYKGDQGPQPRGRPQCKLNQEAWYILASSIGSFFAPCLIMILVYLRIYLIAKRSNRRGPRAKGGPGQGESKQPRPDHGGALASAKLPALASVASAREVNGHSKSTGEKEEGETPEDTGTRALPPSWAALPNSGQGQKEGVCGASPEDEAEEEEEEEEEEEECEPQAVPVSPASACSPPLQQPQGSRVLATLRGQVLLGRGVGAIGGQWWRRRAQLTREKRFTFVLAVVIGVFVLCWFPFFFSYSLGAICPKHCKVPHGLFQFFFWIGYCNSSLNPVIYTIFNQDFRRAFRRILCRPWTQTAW
Assay: Binding affinity towards Alpha-2 adrenergic receptor
Format: protein assay
EXPERIMENTAL_ENDPOINT: Ki

• Cc1cc(C(C)(C)C)ccc1CC1=NCCN1 = > 0.5 µM
• Cc1cc(C(C)C)cc(C)c1CC1=NCCN1 = > 0.5 µM
• CC(C)(C)c1ccc(CC2=NCCN2)cc1 = 1.12 µM
• Cc1cc(C(C)(C)C)cc(C)c1CC1=NCCN1 = > 0.5 µM

Source of measurements: ChEMBL document CHEMBL1131255
